This collection of values is drawn from PubChem BioAssay (NCATS).

Assay: Primary redox qHTS assay for identification of artifact compounds. (AID 1845223)
Settings: Amplex Red/HRP redox cycling with DTT, fluorescence; series mostly up to 53.8 µM
Records with an inconclusive call do not appear. Calls of active or inactive are those of the source. The call rests on the fitted dose curve; in most records, active means well fitted activation curve with a large enough effect; inconclusive means small, poorly fitted or top-dose-only effect; inactive means flat fitted curve, though single readings scatter. Where a SMILES comes first, the peptide text is derived from it. Bridges are numbered along the chain shown (N, C = ends). [ ]: non-standard residue; d: D form. NMeY = CN[CH](Cc1ccc(O)cc1)C(=O)O

{"compound": "CC(=O)SCC(=O)c1ccc(NS(=O)(=O)c2ccc(OCCCN(C)C)cc2)nc1", "redox activity (% of DA3003)": "inactive"}
{"compound": "CCC(C)C1NC(=O)C2CCCN2C(=O)C(NC(C)=O)C(C)OC(=O)C(Cc2ccc(OC)cc2)N(C)C(=O)C2CCCN2C(=O)C(C(C)C)NC1=O (stereo unspecified) (Ac-TPIVP[NMeY](Me); ester 1-C; configuration not given here)", "redox activity (% of DA3003)": "inactive"}
{"compound": "COc1cc(/C=C/C(=O)O[C@H]2[C@H](O)[C@@H](CO)O[C@@]2(CO)O[C@H]2O[C@H](CO)[C@@H](O)[C@H](O)[C@H]2O)ccc1O", "redox activity (% of DA3003)": "inactive"}
{"compound": "Cc1c[nH]c2nccc(Oc3c(F)cc(Nc4cc(Cl)nc(N)n4)cc3F)c12", "redox activity (% of DA3003)": "inactive"}
{"compound": "COc1ccc(C2(O)c3ccccc3NC(=O)C2O)cc1 (stereo unspecified)", "redox activity (% of DA3003)": "inactive"}
{"compound": "O=C(c1ccccc1)c1ccc2nc(NC(=O)c3csc(C4CCN(c5ncnc6ccsc56)CC4)n3)[nH]c2c1", "redox activity (% of DA3003)": "inactive"}
{"compound": "O=C(/C=C/c1ccc(O)cc1)OC1[C@H](O)CC(O)(C(=O)O)C[C@H]1O (stereo partly specified)", "redox activity (% of DA3003)": "inactive"}
{"compound": "Nc1ccc(-c2cccc3c(=O)cc(N4CCOCC4)oc23)cc1", "redox activity (% of DA3003)": "inactive"}
{"compound": "O=C(O)c1cc(-c2c(-c3ccccc3)nn3ccccc23)n[nH]c1=O", "redox activity (% of DA3003)": "inactive"}
{"compound": "CCCC(=O)C1CCN(c2ncnc3c2CN(C(=O)c2ccc(-c4ccccc4)cc2)CC3)CC1", "redox activity (% of DA3003)": "inactive"}
{"compound": "COc1ccc(CCO[C@@H]2CCCC[C@H]2N2CC[C@@H](O)C2)cc1OC", "redox activity (% of DA3003)": "inactive"}
{"compound": "C=C[C@@H]1[C@H](O[C@@H]2O[C@H](CO)[C@@H](O)[C@H](O)[C@H]2O)OC=C(C(=O)O)[C@H]1CCOC(=O)/C=C/c1ccc(O)c(O)c1", "redox activity (% of DA3003)": "inactive"}
{"compound": "CCc1ccc(Cc2ccc3c(c2)[C@]2(OC3)O[C@H](CO)[C@@H](O)[C@H](O)[C@H]2O)cc1", "redox activity (% of DA3003)": "inactive"}
{"compound": "Cc1ccc(C(=O)N(CCCN)C(c2nc3cc(Cl)ccc3c(=O)n2Cc2ccccc2)C(C)C)cc1 (stereo unspecified)", "redox activity (% of DA3003)": "inactive"}
{"compound": "CCCCc1ccc(C(=O)Nc2cc(-c3ccc(Cl)cc3)nn2-c2ccc(Cl)cc2)cc1", "redox activity (% of DA3003)": "inactive"}
{"compound": "C[C@H](C/C=C/C(C)(C)O)[C@H]1CC[C@@]2(C)[C@@H]3[C@@H](O[C@@H]4O[C@H](CO)[C@@H](O)[C@H](O)[C@H]4O)C=C4C(CC[C@H](O)C4(C)C)[C@]3(C=O)CC[C@]12C (stereo partly specified)", "redox activity (% of DA3003)": "inactive"}
